Give %-inhibition, CDK2/CycA2 for every item shown.
- Measured On: panel of more than 300 wild-type and mutant kinases (313 kinase panel) (Homo sapiens, UniProt P24941)
- Test Name: Kinase profiling in a biochemical assay panel (mobility shift assays and ELISA), %-inhibition at 1 μM; selectivity entropy
- Experimental Conditions: kinase CDK2/CycA2; 1 μM compound
Report the figure along with its unit, number first.

What value of %-inhibition, CDK2/CycA2 has been recorded for this entry: CO[C@H]1C[C@@H]2CC[C@@H](C)[C@@](O)(O2)C(=O)C(=O)N2CCCC[C@H]2C(=O)O[C@H]([C@H](C)C[C@@H]2CC[C@@H](OC(=O)C(C)(CO)CO)[C@H](OC)C2)CC(=O)[C@H](C)/C=C(\C)[C@@H](O)[C@@H](OC)C(=O)[C@H](C)C[C@H](C)/C=C/C=C/C=C/1C -8%

Similarly, CCCS(=O)(=O)Nc1ccc(F)c(C(=O)c2c[nH]c3ncc(-c4ccc(Cl)cc4)cc23)c1F ? -3%

Similarly, Cc1cn(-c2cc(NC(=O)c3ccc(C)c(Nc4nccc(-c5cccnc5)n4)c3)cc(C(F)(F)F)c2)cn1 ? -0.282%

====

- Measured On: panel of more than 300 wild-type and mutant kinases (313 kinase panel) (Homo sapiens)
- Test Name: Kinase profiling in a biochemical assay panel (mobility shift assays and ELISA), %-inhibition at 1 μM; selectivity entropy
- Experimental Conditions: kinase Erk5; compound at 1 μM
Give %-inhibition of Erk5 for every item shown.
Please give a number only; it is taken to be in %.

Request - read-out %-inhibition of Erk5 | tested on panel of more than 300 wild-type and mutant kinases (313 kinase panel) (Homo sapiens) | compound Cc1ccc(C(=O)Nc2ccc(CN3CCN(C)CC3)c(C(F)(F)F)c2)cc1C#Cc1cnc2cccnn12 3.45

Similarly, O=S(=O)(c1cccc2cnccc12)N1CCCNCC1 ? -3.32

Similarly, CNC(=O)c1cc(Oc2ccc(NC(=O)Nc3ccc(Cl)c(C(F)(F)F)c3)c(F)c2)ccn1 ? 16

Similarly, CO[C@H]1C[C@@H]2CC[C@@H](C)[C@@](O)(O2)C(=O)C(=O)N2CCCC[C@H]2C(=O)O[C@H]([C@H](C)C[C@@H]2CC[C@@H](OC(=O)C(C)(CO)CO)[C@H](OC)C2)CC(=O)[C@H](C)/C=C(\C)[C@@H](O)[C@@H](OC)C(=O)[C@H](C)C[C@H](C)/C=C/C=C/C=C/1C ? -5

Similarly, CC(=O)Nc1cccc(-n2c(=O)n(C3CC3)c(=O)c3c(Nc4ccc(I)cc4F)n(C)c(=O)c(C)c32)c1 ? -2.55

Similarly, COc1cc2nccc(Oc3ccc(NC(=O)C4(C(=O)Nc5ccc(F)cc5)CC4)cc3)c2cc1OC [cabozantinib] ? -2

Similarly, COc1cc2c(Nc3ccc(Br)cc3F)ncnc2cc1OCC1CCN(C)CC1 ? 9

Similarly, Cc1ccc(Nc2nccc(N(C)c3ccc4c(C)n(C)nc4c3)n2)cc1S(N)(=O)=O ? 16

Similarly, Cc1nc(Nc2ncc(C(=O)Nc3c(C)cccc3Cl)s2)cc(N2CCN(CCO)CC2)n1 ? 5

Similarly, C[C@@H](Oc1cc(-c2cnn(C3CCNCC3)c2)cnc1N)c1c(Cl)ccc(F)c1Cl ? 45

Similarly, Cc1cn(-c2cc(NC(=O)c3ccc(C)c(Nc4nccc(-c5cccnc5)n4)c3)cc(C(F)(F)F)c2)cn1 ? -3.64

Similarly, CC(C)(C)c1nc(-c2cccc(NS(=O)(=O)c3c(F)cccc3F)c2F)c(-c2ccnc(N)n2)s1 ? 0.144

Similarly, COc1cc(Nc2c(C#N)cnc3cc(OCCCN4CCN(C)CC4)c(OC)cc23)c(Cl)cc1Cl ? 3.35

====

Give %-inhibition of QIK for every item shown.
- Measured On: panel of more than 300 wild-type and mutant kinases (313 kinase panel) (Homo sapiens)
- Test Name: Kinase profiling in a biochemical assay panel (mobility shift assays and ELISA), %-inhibition at 1 μM; selectivity entropy
- Experimental Conditions: kinase QIK; 1 μM
Please give a number only; it is taken to be in %.

What value of %-inhibition of QIK has been recorded for this entry: Cc1cn(-c2cc(NC(=O)c3ccc(C)c(Nc4nccc(-c5cccnc5)n4)c3)cc(C(F)(F)F)c2)cn1 [nilotinib] -36

Similarly, COc1cc2nccc(Oc3ccc(NC(=O)C4(C(=O)Nc5ccc(F)cc5)CC4)cc3)c2cc1OC [cabozantinib] ? 0.408

Similarly, O=S(=O)(c1cccc2cnccc12)N1CCCNCC1 [fasudil] ? 3.26

Similarly, CC(C)(C)c1nc(-c2cccc(NS(=O)(=O)c3c(F)cccc3F)c2F)c(-c2ccnc(N)n2)s1 [dabrafenib] ? 80

Similarly, CC(=O)Nc1cccc(-n2c(=O)n(C3CC3)c(=O)c3c(Nc4ccc(I)cc4F)n(C)c(=O)c(C)c32)c1 [trametinib] ? -4.66

Similarly, CO[C@H]1C[C@@H]2CC[C@@H](C)[C@@](O)(O2)C(=O)C(=O)N2CCCC[C@H]2C(=O)O[C@H]([C@H](C)C[C@@H]2CC[C@@H](OCCO)[C@H](OC)C2)CC(=O)[C@H](C)/C=C(\C)[C@@H](O)[C@@H](OC)C(=O)[C@H](C)C[C@H](C)/C=C/C=C/C=C/1C [everolimus] ? -3

====

- Measured On: panel of more than 300 wild-type and mutant kinases (313 kinase panel) (Homo sapiens)
- Test Name: Kinase profiling in a biochemical assay panel (mobility shift assays and ELISA), %-inhibition at 1 μM; selectivity entropy
- Experimental Conditions: kinase DCAMKL2; compound at 1 μM
Give %-inhibition of DCAMKL2 for every item shown.
Please give a number only; it is taken to be in %.

What value of %-inhibition of DCAMKL2 has been recorded for this entry: CC(C)(C)c1nc(-c2cccc(NS(=O)(=O)c3c(F)cccc3F)c2F)c(-c2ccnc(N)n2)s1 19

Similarly, Cc1cn(-c2cc(NC(=O)c3ccc(C)c(Nc4nccc(-c5cccnc5)n4)c3)cc(C(F)(F)F)c2)cn1 ? -17

Similarly, Cc1nc(Nc2ncc(C(=O)Nc3c(C)cccc3Cl)s2)cc(N2CCN(CCO)CC2)n1 ? 2

Similarly, CS(=O)(=O)CCNCc1ccc(-c2ccc3ncnc(Nc4ccc(OCc5cccc(F)c5)c(Cl)c4)c3c2)o1 ? 7

Similarly, CO[C@H]1C[C@@H]2CC[C@@H](C)[C@@](O)(O2)C(=O)C(=O)N2CCCC[C@H]2C(=O)O[C@H]([C@H](C)C[C@@H]2CC[C@@H](OC(=O)C(C)(CO)CO)[C@H](OC)C2)CC(=O)[C@H](C)/C=C(\C)[C@@H](O)[C@@H](OC)C(=O)[C@H](C)C[C@H](C)/C=C/C=C/C=C/1C ? -4

Similarly, CCCS(=O)(=O)Nc1ccc(F)c(C(=O)c2c[nH]c3ncc(-c4ccc(Cl)cc4)cc23)c1F ? -3.52

====

- Measured On: panel of more than 300 wild-type and mutant kinases (313 kinase panel) (Homo sapiens, UniProt Q9Y6R4)
- Sequence (Q9Y6R4 whole entry, change not shown): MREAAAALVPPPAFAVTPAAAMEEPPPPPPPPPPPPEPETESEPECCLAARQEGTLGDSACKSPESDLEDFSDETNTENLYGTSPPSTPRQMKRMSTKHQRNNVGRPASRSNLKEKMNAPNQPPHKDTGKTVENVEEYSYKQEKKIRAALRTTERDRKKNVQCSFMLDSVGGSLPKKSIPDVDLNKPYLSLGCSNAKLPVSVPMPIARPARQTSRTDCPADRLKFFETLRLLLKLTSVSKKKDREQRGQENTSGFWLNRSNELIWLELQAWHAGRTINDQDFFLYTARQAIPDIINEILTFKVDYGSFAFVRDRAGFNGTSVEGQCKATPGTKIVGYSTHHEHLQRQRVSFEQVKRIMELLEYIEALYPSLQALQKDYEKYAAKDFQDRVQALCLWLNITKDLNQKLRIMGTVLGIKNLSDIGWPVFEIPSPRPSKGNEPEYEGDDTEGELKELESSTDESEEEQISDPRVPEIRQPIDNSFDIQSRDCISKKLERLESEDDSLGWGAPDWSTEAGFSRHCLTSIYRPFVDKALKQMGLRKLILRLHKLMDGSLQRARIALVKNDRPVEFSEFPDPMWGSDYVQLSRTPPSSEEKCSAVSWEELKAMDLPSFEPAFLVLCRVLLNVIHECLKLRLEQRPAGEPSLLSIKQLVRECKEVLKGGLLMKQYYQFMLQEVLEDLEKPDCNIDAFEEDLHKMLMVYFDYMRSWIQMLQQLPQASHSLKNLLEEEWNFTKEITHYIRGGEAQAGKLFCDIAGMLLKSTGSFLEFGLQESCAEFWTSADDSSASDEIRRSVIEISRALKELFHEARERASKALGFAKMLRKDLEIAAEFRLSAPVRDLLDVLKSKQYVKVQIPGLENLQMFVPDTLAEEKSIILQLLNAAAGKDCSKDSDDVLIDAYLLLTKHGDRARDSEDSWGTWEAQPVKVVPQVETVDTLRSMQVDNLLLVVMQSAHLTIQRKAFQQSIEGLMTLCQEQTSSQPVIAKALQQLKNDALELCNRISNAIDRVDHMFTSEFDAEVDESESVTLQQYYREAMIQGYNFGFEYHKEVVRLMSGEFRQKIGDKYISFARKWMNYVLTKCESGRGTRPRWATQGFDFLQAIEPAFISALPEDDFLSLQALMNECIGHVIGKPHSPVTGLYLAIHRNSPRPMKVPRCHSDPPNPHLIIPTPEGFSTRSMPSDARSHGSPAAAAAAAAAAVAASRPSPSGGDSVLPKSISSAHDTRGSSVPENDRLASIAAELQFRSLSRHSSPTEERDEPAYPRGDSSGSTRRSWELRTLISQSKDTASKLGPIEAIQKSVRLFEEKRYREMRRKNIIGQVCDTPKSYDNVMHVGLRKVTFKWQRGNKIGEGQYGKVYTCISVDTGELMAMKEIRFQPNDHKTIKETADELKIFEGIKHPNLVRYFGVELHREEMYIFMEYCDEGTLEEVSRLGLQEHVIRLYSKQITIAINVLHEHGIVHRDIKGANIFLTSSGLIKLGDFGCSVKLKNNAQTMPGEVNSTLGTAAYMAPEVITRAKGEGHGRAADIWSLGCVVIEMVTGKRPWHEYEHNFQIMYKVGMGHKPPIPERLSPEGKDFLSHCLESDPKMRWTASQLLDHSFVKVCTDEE
- Test Name: Kinase profiling in a biochemical assay panel (mobility shift assays and ELISA), %-inhibition at 1 μM; selectivity entropy
- Experimental Conditions: kinase MAP3K4; compound at 1 μM
Give %-inhibition of MAP3K4 for every item shown.
Please give a number only; it is taken to be in %.

What value of %-inhibition of MAP3K4 has been recorded for this entry: Cc1ccc(C(=O)Nc2ccc(CN3CCN(C)CC3)c(C(F)(F)F)c2)cc1C#Cc1cnc2cccnn12 60

Similarly, N#CC[C@H](C1CCCC1)n1cc(-c2ncnc3[nH]ccc23)cn1 ? -4

Similarly, O=S(=O)(c1cccc2cnccc12)N1CCCNCC1 ? -18

Similarly, CO[C@H]1C[C@@H]2CC[C@@H](C)[C@@](O)(O2)C(=O)C(=O)N2CCCC[C@H]2C(=O)O[C@H]([C@H](C)C[C@@H]2CC[C@@H](OCCO)[C@H](OC)C2)CC(=O)[C@H](C)/C=C(\C)[C@@H](O)[C@@H](OC)C(=O)[C@H](C)C[C@H](C)/C=C/C=C/C=C/1C ? -1.11

Similarly, CNC(=O)c1cc(Oc2ccc(NC(=O)Nc3ccc(Cl)c(C(F)(F)F)c3)c(F)c2)ccn1 ? -9

====

Give %-inhibition of MARK4 for every item shown.
- Measured On: panel of more than 300 wild-type and mutant kinases (313 kinase panel) (Homo sapiens)
- Sequence (Q96L34 1-752): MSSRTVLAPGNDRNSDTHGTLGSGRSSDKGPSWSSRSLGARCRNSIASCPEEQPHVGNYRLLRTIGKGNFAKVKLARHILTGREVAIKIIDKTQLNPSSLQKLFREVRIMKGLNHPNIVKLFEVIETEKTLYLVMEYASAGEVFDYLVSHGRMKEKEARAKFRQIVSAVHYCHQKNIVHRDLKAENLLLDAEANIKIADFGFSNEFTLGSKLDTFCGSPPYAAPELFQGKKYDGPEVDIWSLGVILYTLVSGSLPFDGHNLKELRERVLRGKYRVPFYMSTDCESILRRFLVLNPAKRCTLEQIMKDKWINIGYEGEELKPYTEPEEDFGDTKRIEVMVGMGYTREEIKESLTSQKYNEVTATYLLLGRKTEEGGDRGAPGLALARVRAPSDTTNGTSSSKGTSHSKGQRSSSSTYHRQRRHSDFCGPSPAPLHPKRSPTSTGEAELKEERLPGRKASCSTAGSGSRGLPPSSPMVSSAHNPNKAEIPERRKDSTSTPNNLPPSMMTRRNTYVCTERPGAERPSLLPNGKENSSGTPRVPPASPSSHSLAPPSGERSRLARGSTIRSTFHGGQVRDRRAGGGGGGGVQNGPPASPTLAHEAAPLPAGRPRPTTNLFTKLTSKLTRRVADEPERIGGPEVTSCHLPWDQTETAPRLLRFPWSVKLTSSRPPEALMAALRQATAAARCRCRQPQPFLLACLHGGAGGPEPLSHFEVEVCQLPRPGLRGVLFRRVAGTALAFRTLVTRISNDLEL
- Test Name: Kinase profiling in a biochemical assay panel (mobility shift assays and ELISA), %-inhibition at 1 μM; selectivity entropy
- Experimental Conditions: kinase MARK4; compound at 1 μM
Please give a number only; it is taken to be in %.

What value of %-inhibition of MARK4 has been recorded for this entry: CO[C@H]1C[C@@H]2CC[C@@H](C)[C@@](O)(O2)C(=O)C(=O)N2CCCC[C@H]2C(=O)O[C@H]([C@H](C)C[C@@H]2CC[C@@H](OCCO)[C@H](OC)C2)CC(=O)[C@H](C)/C=C(\C)[C@@H](O)[C@@H](OC)C(=O)[C@H](C)C[C@H](C)/C=C/C=C/C=C/1C -27

Similarly, Cc1ccc(Nc2nccc(N(C)c3ccc4c(C)n(C)nc4c3)n2)cc1S(N)(=O)=O ? 9

Similarly, CC(C)(C)c1nc(-c2cccc(NS(=O)(=O)c3c(F)cccc3F)c2F)c(-c2ccnc(N)n2)s1 ? -27

All values here come from paper PMC3961306.
